Hello, the source for this data is PubChem BioAssay (NCI), in case you need it.

# key: entry, value: TGI
Test system: LOX IMVI melanoma
Assay text: NCI tumour cell line growth inhibition, 48 h
Report only the number, with the unit µM understood.

CCC(C)C1NC(=O)C2CCCN2C(=O)C(CC2CO2)OC(=O)CCNC(=O)C(C)N(C)C(=O)C(C(C)C)N(C)C1=O (stereo not given)	0.118
NC1CC(=O)c2c(Cl)sc(Cl)c21 (stereo not given)	4.81

Query string: Give the value of TGI reported for the following: C=C1C(=O)O[C@H]2[C@H]1CC/C(COC(=O)CCCCCCCCC(=O)OC/C1=C/CC[C@@]3(C)O[C@H]3[C@H]3OC(=O)C(=C)[C@@H]3CC1)=C\CC[C@@]1(C)O[C@@H]21
Result string: 3.08

Query string: Give the value of TGI reported for the following: CN(C)CCn1c(=O)c2ccc3c4c(nn3CCN(C)C)c3cc(N)ccc3n(c1=O)c24
Result string: 0.127

###

System: CCRF-CEM leukemia
API: response.call in active, inactive

Sample answers from the record:
CC(=O)O[C@H]1C(=O)O[C@@H]2C[C@H]3C(C)=CC(=O)[C@@H](O)[C@]3(C)[C@H]3[C@@]4(O)OC[C@]32[C@@H]1[C@@H](C)[C@H]4O	active
COc1ccc(-c2cnc3ccnn3c2-c2cc(OC)c(OC)c(OC)c2)cc1	inactive
CCOC(=O)c1ccc(N(CCOS(C)(=O)=O)CCOS(C)(=O)=O)cc1C	inactive
Clc1cc(Cl)c(Cl)c(-c2nc(-c3cccnc3)cs2)c1	inactive

Shifting focus to the compound that follows.
Query string: Assay result, entry C/C(=N\NC(=O)c1cccnc1)c1cccc(/C(C)=N/NC(=O)c2cccnc2)n1 — outcome?
Result string: inactive

###

System: K-562 leukemia
Assay text: NCI tumour cell line growth inhibition, 48 h
Measured attribute: TGI

Worked examples follow.
Cc1ccc(S(=O)(=O)/N=c2\ssc(Nc3ccccc3)c2Cl)cc1	> 50 µM
COC(=O)C[C@@H]1C(C)(C)[C@@H]2O[C@@]34C[C@@H]2C(=O)[C@]1(C)[C@H]3CC[C@@]1(C)[C@H](c2ccoc2)OC(=O)C[C@]14O	> 100 µM
O=C1c2ccccc2-c2nc3ccc(O)cc3n21	> 100 µM
Cc1ccc2c(c1)C(=O)C(Cc1ccccc1C(=O)O)C2 (stereo not drawn)	> 100 µM

Query string: Give the value of TGI reported for the following: CCOC(=O)c1c(C)nc2ccc(Cl)cc2c1-c1ccccc1
Result string: > 100 µM

Query string: Give the value of TGI reported for the following: O=C(O)c1ccc2c(c1Nc1ccccc1)C(=O)c1ccccc1C2=O
Result string: > 100 µM

Query string: Give the value of TGI reported for the following: O=C(C#CP(=O)(O)c1ccccc1)c1ccccc1
Result string: > 100 µM

Query string: Give the value of TGI reported for the following: COc1cc(-c2cc(=O)c3ccccc3o2)ccc1N
Result string: > 100 µM

Query string: Give the value of TGI reported for the following: CCOC(=O)CC(=O)C(=O)NNC1=NCCCN1
Result string: > 100 µM

Query string: Give the value of TGI reported for the following: NCCNc1nc(N2CCCC2)c2nc(Cl)c(NCc3ccccc3)nc2n1
Result string: 0.182 µM

Query string: Give the value of TGI reported for the following: C=C1C[C@@H](O)[C@@H](Br)C(C)(C)[C@]12CCC(C)(Cl)C(Br)C2 (stereo partly drawn)
Result string: > 100 µM

Query string: Give the value of TGI reported for the following: Oc1c2cc(Br)cc1CCc1cc(Br)cc(c1O)CC2
Result string: > 100 µM

Query string: Give the value of TGI reported for the following: Cc1ccc2c(=O)cc(-c3cccc4ccccc34)[nH]c2n1
Result string: > 36.8 µM

Query string: Give the value of TGI reported for the following: c1cc(OCCN2CCCCCC2)ccc1CNc1ccc2nc(CCC3CCCCC3)[nH]c2c1
Result string: 4.61 µM

Query string: Give the value of TGI reported for the following: CC(=O)Nc1ccc(C(=O)NN2C(=O)C(Cl)C2c2cc(Br)ccc2O)cc1 (stereo not drawn)
Result string: > 100 µM

Query string: Give the value of TGI reported for the following: CC(=O)NC(CCCCNC(=O)N(CCCl)N=O)C(=O)NCc1ccccc1 (stereo not drawn)
Result string: > 100 µM
